test: Pharmacokinetics, intravenous and oral dose
Set-up: species or system male CD-1 mice
setupConditions: male, CD-1, mouse, in vivo, iv, 1 mg/kg
observedProperty: AUC (ng·h/mL)
Quick reminder: number only, in ng·h/mL, skip the unit.

compound | AUC, ng·h/mL
Cc1cc(Cl)cnc1NC(c1ccc(Cl)cc1Cl)c1ccc2cccnc2c1O (centres unmarked) | 609

[ask] Using the record for Cc1c(Cl)cnc(NC(c2cccc(Cl)c2Cl)c2ccc3cccnc3c2O)c1F (centres unmarked) , report its AUC.
[reply] 1390

----------
test: Stability on incubation with mouse liver microsomes (MLM)
Type: in vitro ADME
setupConditions: percentage left after incubation with mouse liver microsomes for 30 minutes
Procedure: Stability of hydroxyquinoline analogs were determined (see e.g., TABLE 18). MLM represents the percentage left after incubation with mouse liver microsomes for 30 minutes. HLM represents the percentage left after incubation with human liver microsomes for 30 minutes. Stability of analogs having a benzaldehyde derived ring were determined (see e.g., TABLE 18). MLM represents the percentage left after incubation with mouse liver microsomes for 30 minutes. […]
observedProperty: MLM % Remaining@ 30 Min
Please make sure the unit comes right after the number.

compound | MLM % Remaining@ 30 Min
Oc1c(C(Nc2ccc(C(F)(F)F)nc2)c2ccc(C(F)(F)F)cc2)ccc2cccnc12 (centres unmarked) | 42%
Cc1ccc2c(C)nc(Nc3nc(-c4ccccc4C)cc(=O)[nH]3)nc2c1 | 6%
Cc1cc(NC(c2cccc(C(F)(F)F)c2)c2ccc3cccnc3c2O)ncc1Cl (centres unmarked) | 28%
Oc1c(C(Nc2ncc(C(F)(F)F)cc2F)c2ccc(Cl)cc2Cl)ccc2cccnc12 (centres unmarked) | 100%
Cc1cccc(NC(c2ccc(C)c(F)c2F)c2ccc3ccc(C)nc3c2O)n1 (centres unmarked) | 5%
Cc1cc(NC(c2ccc(Cl)cc2Cl)c2ccc3cccnc3c2O)ncc1Cl (centres unmarked) | 30%
Cc1c(Cl)cnc(NC(c2cccc(Cl)c2Cl)c2ccc3cccnc3c2O)c1F (centres unmarked) | 63%
Cc1cc(Cl)cnc1NC(c1ccc(C(F)(F)F)cc1F)c1ccc2cccnc2c1O (centres unmarked) | 99%
Cc1cc(Cl)cnc1NC(c1cc(C(F)(F)F)ccc1Cl)c1ccc2cccnc2c1O (centres unmarked) | 60%
Oc1c(C(Nc2ncc(Cl)cc2F)c2ccc(Cl)c(Cl)c2)ccc2cccnc12 (centres unmarked) | 85%

[ask] Using the record for Cc1cc(Cl)cnc1NC(c1cc(Cl)cc(Cl)c1)c1ccc2cccnc2c1O (centres unmarked) , report its MLM % Remaining@ 30 Min.
[reply] 83%

[ask] Using the record for Cc1cccc(NC(c2cc(Cl)cc(Cl)c2)c2ccc3cccnc3c2O)n1 (centres unmarked) , report its MLM % Remaining@ 30 Min.
[reply] 41%

[ask] Using the record for Cc1cc(Cl)cnc1NC(c1ccc(C(F)(F)F)c(F)c1)c1ccc2cccnc2c1O (centres unmarked) , report its MLM % Remaining@ 30 Min.
[reply] 77%
